Molecular target: Recombinant renin (Homo sapiens, UniProt P00797)
Construct: purchased BPS Bioscince
Sequence (P00797 67-406): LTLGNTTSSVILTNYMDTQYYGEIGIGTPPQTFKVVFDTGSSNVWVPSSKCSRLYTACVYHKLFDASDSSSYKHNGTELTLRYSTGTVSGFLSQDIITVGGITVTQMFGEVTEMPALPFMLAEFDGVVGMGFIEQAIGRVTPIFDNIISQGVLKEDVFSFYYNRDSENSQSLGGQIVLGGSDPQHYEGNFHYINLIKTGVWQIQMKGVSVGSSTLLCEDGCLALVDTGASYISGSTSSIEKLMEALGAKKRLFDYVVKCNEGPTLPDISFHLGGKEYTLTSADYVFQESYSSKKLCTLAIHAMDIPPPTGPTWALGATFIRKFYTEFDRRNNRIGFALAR
Experiment: Renin inhibitory activity (renin-inhibitor screening assay kit)
Type: biochemical
Conditions: isolated compounds, Table S7; read-out: Inhibition (IC50) Renin (converted)
quantity measured: IC50 (µM)

[
  {
    "molecule": "COc1cc(-c2oc3cc(O)cc(O)c3c(=O)c2O[C@@H]2O[C@H](CO)[C@@H](O)[C@H](O)[C@H]2O)ccc1O [P3, isorhamnetin-3-O-β-D-glucopyranoside]",
    "quantity measured": "IC50",
    "reported result": 34.8
  },
  {
    "molecule": "O=c1c(O)c(-c2ccc(O)c(O)c2)oc2cc(O)cc(O)c12",
    "quantity measured": "IC50",
    "reported result": 21.9
  },
  {
    "molecule": "CCOC(=O)[C@H](CCc1ccccc1)N[C@@H](C)C(=O)N1Cc2ccccc2C[C@H]1C(=O)O [quinapril, reference compound]",
    "quantity measured": "IC50",
    "reported result": 0.045
  },
  {
    "molecule": "C[C@@H]1O[C@@H](OC[C@H]2O[C@@H](Oc3c(-c4ccc(O)c(O)c4)oc4cc(O)cc(O)c4c3=O)[C@H](O)[C@@H](O)[C@@H]2O)[C@H](O)[C@H](O)[C@H]1O [P1, rutin]",
    "quantity measured": "IC50",
    "reported result": 40.8
  },
  {
    "molecule": "O=C(O)/C=C/c1ccccc1",
    "quantity measured": "IC50",
    "reported result": 20.7
  },
  {
    "molecule": "O=c1c(O[C@@H]2O[C@H](CO)[C@@H](O)[C@H](O)[C@H]2O)c(-c2ccc(O)c(O)c2)oc2cc(O)cc(O)c12 [P2, isoquercitrin]",
    "quantity measured": "IC50",
    "reported result": 24.8
  },
  {
    "molecule": "O=C(/C=C/c1ccc(O)c(O)c1)O[C@@H]1C[C@](O)(C(=O)O)C[C@@H](O)[C@H]1O",
    "quantity measured": "IC50",
    "reported result": 47.8
  }
]

====

Target: ACE1 (Homo sapiens)
Sequence (P12821 30-1232): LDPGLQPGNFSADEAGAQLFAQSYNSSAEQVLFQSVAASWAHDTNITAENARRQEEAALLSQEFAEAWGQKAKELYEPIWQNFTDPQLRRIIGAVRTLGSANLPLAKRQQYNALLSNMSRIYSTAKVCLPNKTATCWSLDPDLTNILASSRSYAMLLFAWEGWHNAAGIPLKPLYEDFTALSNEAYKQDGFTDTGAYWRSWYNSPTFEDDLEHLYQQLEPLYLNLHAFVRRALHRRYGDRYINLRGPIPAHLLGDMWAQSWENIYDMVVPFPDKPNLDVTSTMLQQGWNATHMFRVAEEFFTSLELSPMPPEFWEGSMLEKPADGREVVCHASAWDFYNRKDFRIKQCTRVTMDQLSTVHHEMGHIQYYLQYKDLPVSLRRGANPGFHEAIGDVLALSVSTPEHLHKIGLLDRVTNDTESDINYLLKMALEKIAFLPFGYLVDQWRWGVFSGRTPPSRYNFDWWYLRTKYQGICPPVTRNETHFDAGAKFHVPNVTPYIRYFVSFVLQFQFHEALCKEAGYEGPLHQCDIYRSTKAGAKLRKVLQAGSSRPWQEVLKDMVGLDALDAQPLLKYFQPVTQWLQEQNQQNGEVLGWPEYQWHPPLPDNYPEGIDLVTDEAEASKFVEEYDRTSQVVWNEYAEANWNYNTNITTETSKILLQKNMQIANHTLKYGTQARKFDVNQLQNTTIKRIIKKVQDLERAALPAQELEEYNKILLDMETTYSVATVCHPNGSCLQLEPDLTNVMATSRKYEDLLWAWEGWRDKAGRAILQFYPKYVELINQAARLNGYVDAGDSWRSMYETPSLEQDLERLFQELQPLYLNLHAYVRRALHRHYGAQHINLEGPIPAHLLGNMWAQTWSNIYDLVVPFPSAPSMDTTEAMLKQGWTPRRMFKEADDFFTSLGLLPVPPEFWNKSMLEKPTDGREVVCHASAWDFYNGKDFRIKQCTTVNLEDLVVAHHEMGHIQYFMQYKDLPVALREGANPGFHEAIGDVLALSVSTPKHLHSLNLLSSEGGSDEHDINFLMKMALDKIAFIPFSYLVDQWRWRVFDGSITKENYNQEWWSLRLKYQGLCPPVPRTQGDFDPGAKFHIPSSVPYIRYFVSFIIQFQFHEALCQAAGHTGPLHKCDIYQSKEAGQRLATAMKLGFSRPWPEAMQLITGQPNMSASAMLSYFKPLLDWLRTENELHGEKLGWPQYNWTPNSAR
Assay: Angiotensin conversion enzyme (ACE) inhibitory activity (HHL substrate)
Conditions: isolated compounds, Table S7; read-out: Inhibition (IC50) ACE1
pIC50: −log10 of the molar value.
quantity measured: pIC50

[
  {
    "molecule": "COc1cc(-c2oc3cc(O)cc(O)c3c(=O)c2O[C@@H]2O[C@H](CO)[C@@H](O)[C@H](O)[C@H]2O)ccc1O [P3, isorhamnetin-3-O-β-D-glucopyranoside]",
    "reported result": 6.51
  }
]

====

Molecular target: α-glucosidase (Saccharomyces cerevisiae, UniProt P53341)
Construct: purchased Sigma
Sequence (P53341 whole entry): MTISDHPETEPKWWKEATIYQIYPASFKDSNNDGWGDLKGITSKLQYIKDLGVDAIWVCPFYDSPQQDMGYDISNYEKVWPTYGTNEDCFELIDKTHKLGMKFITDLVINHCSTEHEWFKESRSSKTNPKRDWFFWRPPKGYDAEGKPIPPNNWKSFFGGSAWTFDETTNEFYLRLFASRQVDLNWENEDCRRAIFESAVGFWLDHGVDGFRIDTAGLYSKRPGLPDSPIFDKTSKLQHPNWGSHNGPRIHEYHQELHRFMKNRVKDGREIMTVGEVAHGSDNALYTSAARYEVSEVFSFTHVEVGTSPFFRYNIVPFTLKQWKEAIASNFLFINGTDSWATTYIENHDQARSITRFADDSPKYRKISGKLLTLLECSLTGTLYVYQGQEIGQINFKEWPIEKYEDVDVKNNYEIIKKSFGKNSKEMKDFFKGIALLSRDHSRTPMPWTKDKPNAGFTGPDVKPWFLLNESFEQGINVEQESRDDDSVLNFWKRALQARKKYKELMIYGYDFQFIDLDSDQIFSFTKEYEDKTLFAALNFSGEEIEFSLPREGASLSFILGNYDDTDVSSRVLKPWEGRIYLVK
Assay: biochemical
Conditions: Inhibition (IC50) α-Glucosidase, isolated compounds, Table S7

[
  {
    "molecule": "O=C(O)/C=C/c1ccccc1 [P6, cinnamic acid]",
    "measure unit": "nM",
    "IC50": 750
  },
  {
    "molecule": "O=c1c(O[C@@H]2O[C@H](CO)[C@@H](O)[C@H](O)[C@H]2O)c(-c2ccc(O)c(O)c2)oc2cc(O)cc(O)c12 [P2, isoquercitrin]",
    "measure unit": "nM",
    "IC50": 1120
  }
]
